- Test Description: binders of probe aFGF10 on microarray, primary screen, stem cell growth factor project, biochemical, small-molecule microarray, fluorescence 635/667 (AID 1071);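 also: score merges 667 nm spot intensity and signal to noise from triplicate slides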
- Measurement Context: higher = more signal
Readout Label: composite z-score

molecule=COC(=O)[C@@]1(Cc2ccccc2CN=[N+]=[N-])COC(c2ccc(OCCCO)cc2)=N1 readout_label="composite z-score" reported_result=-0.565
molecule=COc1ccc(C#Cc2ccc3c(c2)[C@]2(C(=O)N3)[C@H](C(=O)Nc3nc4ccccc4s3)[C@H]3C(=O)O[C@H](c4ccccc4)[C@H](c4ccccc4)N3[C@@H]2c2ccc(OCCO)cc2)cc1 readout_label="composite z-score" reported_result=0.977
molecule=[N-]=[N+]=NCc1ccccc1C[C@@]1(C(=O)O)N=C(c2ccc(OCCCO)cc2)O[C@@H]1c1ccccc1CN=[N+]=[N-] readout_label="composite z-score" reported_result=0.556
molecule=COC(=O)C(CC#Cc1ccc2c(c1)[C@]1(C(=O)N2)[C@H](c2ccc(O)cc2)N2[C@H](c3ccccc3)[C@H](c3ccccc3)OC(=O)[C@H]2[C@@H]1C(=O)N1CCc2cc(OC)c(OC)cc2C1)C(=O)OC readout_label="composite z-score" reported_result=0.59
molecule=C=CC[C@]1(C(=O)OC)N=C(c2ccc(OCCCO)cc2)O[C@H]1c1ccccc1N=[N+]=[N-] readout_label="composite z-score" reported_result=1.13
molecule="CCCCN1CC=CC23O[C@@H]4C=CCOC(=O)[C@@H]4[C@H]2C(=O)N(C(CO)C(C)C)[C@@H]3C1=O (stereo partly specified)" readout_label="composite z-score" reported_result=-0.275
